Recorded growth at 20 µg/mL by entry
System: A498
Test: Anticancer activity against human A498 cells assessed as cell growth at 20 ug/mL by sulforhodamine B assay
Assay type: functional
Conditions: read-out: Activity

Solved cases (6 shown):
Oc1ccc(C2CC(c3ccc4[nH]c5c(c4c3)CCCC5)=NN2)cc1 (configuration not stated) : 86%
Clc1ccc(C2CC(c3ccc4[nH]c5c(c4c3)CCCC5)=NN2)cc1 (configuration not stated) : 100%
c1ccc(C2CC(c3ccc4[nH]c5c(c4c3)CCCC5)=NN2)cc1 (configuration not stated) : 99.1%
Clc1ccccc1C1CC(c2ccc3[nH]c4c(c3c2)CCCC4)=NN1 (configuration not stated) : 100%
COc1cccc2c1C(=O)c1c(O)c3c(c(O)c1C2=O)C[C@@](O)(C(=O)CO)C[C@@H]3O[C@H]1C[C@H](N)[C@H](O)[C@H](C)O1 [DOXORUBICIN] : 8.2%
Clc1cccc(C2CC(c3ccc4[nH]c5c(c4c3)CCCC5)=NN2)c1 (configuration not stated) : 100%

Lab note: next compound to report on.
What value of measured growth at 20 µg/mL is listed for COc1ccc(C2CC(c3ccc4[nH]c5c(c4c3)CCCC5)=NN2)cc1 (configuration not stated) ?
100%

====

Recorded GI50 by entry
Test system: A498
Experiment: Cytotoxicity against human A498 cells
Type: functional
Answer with a number only, understood to be in µg/mL.

Solved cases (4 shown):
CC1CC(c2ccc3[nH]c4c(c3c2)CCCC4)=NN1 (configuration not stated) : 55.2
Oc1ccccc1C1CC(c2ccc3[nH]c4c(c3c2)CCCC4)=NN1 (configuration not stated) : 62.3
Clc1ccc(C2CC(c3ccc4[nH]c5c(c4c3)CCCC5)=NN2)cc1 (configuration not stated) : 72.7
COc1ccc(C2CC(c3ccc4[nH]c5c(c4c3)CCCC5)=NN2)cc1 (configuration not stated) : 55

What value of measured GI50 is listed for Clc1ccccc1C1CC(c2ccc3[nH]c4c(c3c2)CCCC4)=NN1 (configuration not stated) ?
62

Then this compound: Cc1ccc(C2CC(c3ccc4[nH]c5c(c4c3)CCCC5)=NN2)cc1 (configuration not stated)
54

Then this compound: Clc1cccc(C2CC(c3ccc4[nH]c5c(c4c3)CCCC5)=NN2)c1 (configuration not stated)
74.3

Then this compound: C(=C\C1CC(c2ccc3[nH]c4c(c3c2)CCCC4)=NN1)/c1ccccc1 (configuration not stated)
57

Then this compound: O=[N+]([O-])c1ccc(C2CC(c3ccc4[nH]c5c(c4c3)CCCC5)=NN2)cc1 (configuration not stated)
56.2

Then this compound: Oc1ccc(C2CC(c3ccc4[nH]c5c(c4c3)CCCC5)=NN2)cc1 (configuration not stated)
74.5

Then this compound: c1ccc(C2CC(c3ccc4[nH]c5c(c4c3)CCCC5)=NN2)cc1 (configuration not stated)
55.6

====

System: A498
Assay: Anticancer activity against human A498 cells assessed as cell growth at 80 ug/mL by sulforhodamine B assay
Assay type: functional
Conditions: read-out: Activity
Value Kind: growth at 80 µg/mL (%)
Answer with a number only, understood to be in %.

Solved cases (2 shown):
COc1ccc(C2CC(c3ccc4[nH]c5c(c4c3)CCCC5)=NN2)cc1 (stereo not drawn) : 4.2
c1ccc(C2CC(c3ccc4[nH]c5c(c4c3)CCCC5)=NN2)cc1 (stereo not drawn) : 3.9

Lab note: next compound to report on.
What value of measured growth at 80 µg/mL is listed for Clc1cccc(C2CC(c3ccc4[nH]c5c(c4c3)CCCC5)=NN2)c1 (stereo not drawn) ?
33.5
